Test system: Brugia pahangi adult female
Protocol Summary: IC50 motility inhibition on day 3
Experimental Parameters: 3 days
Where a name gives a salt, the structure may show the parent alone.
IC50 motility inhibition on day 3 for assorted molecules
The answer is to be given in µM; state only the numeric part.

>  <Molecule>
Clc1ccc(Cn2c(CN3CCCC3)nc3ccccc32)cc1 [clemizole hydrochloride]

>  <Test Target>
Brugia pahangi adult female

>  <IC50 motility inhibition on day 3 (µM)>
6.51

$$$$
>  <Molecule>
CC(=O)OC[C@H]1O[C@@H]([S-])[C@H](OC(C)=O)[C@@H](OC(C)=O)[C@@H]1OC(C)=O.CCP(CC)CC.[Au+]

>  <Test Target>
Brugia pahangi adult female

>  <IC50 motility inhibition on day 3 (µM)>
0.7

$$$$
>  <Molecule>
O=C(Nc1ncc([N+](=O)[O-])s1)c1ccccc1O [Tizoxanide]

>  <Test Target>
Brugia pahangi adult female

>  <IC50 motility inhibition on day 3 (µM)>
3.4

$$$$
>  <Molecule>
COC(=O)C1=C(C)NC(C)=C(C(=O)OC(C)C)C1c1cccc2nonc12 (stereo unspecified)

>  <Test Target>
Brugia pahangi adult female

>  <IC50 motility inhibition on day 3 (µM)>
2.75

$$$$
>  <Molecule>
Oc1c(Cl)cc(Cl)c(Cl)c1Cc1c(O)c(Cl)cc(Cl)c1Cl

>  <Test Target>
Brugia pahangi adult female

>  <IC50 motility inhibition on day 3 (µM)>
1.7

$$$$
>  <Molecule>
O=C(Nc1ccc([N+](=O)[O-])cc1Cl)c1cc(Cl)ccc1O [niclosamide]

>  <Test Target>
Brugia pahangi adult female

>  <IC50 motility inhibition on day 3 (µM)>
1.17

$$$$
>  <Molecule>
C1CCC(C(CC2CCCCN2)C2CCCCC2)CC1 (stereo unspecified) [perhexiline maleate]

>  <Test Target>
Brugia pahangi adult female

>  <IC50 motility inhibition on day 3 (µM)>
7.46

$$$$
>  <Molecule>
Cc1cc(C2CCCCC2)n(O)c(=O)c1

>  <Test Target>
Brugia pahangi adult female

>  <IC50 motility inhibition on day 3 (µM)>
0.287

$$$$
>  <Molecule>
Oc1c(I)cc(Cl)c2cccnc12

>  <Test Target>
Brugia pahangi adult female

>  <IC50 motility inhibition on day 3 (µM)>
2.61

$$$$
>  <Molecule>
Clc1ccc(COC(Cn2ccnc2)c2ccc(Cl)cc2Cl)c(Cl)c1 (stereo unspecified) [miconazole nitrate]

>  <Test Target>
Brugia pahangi adult female

>  <IC50 motility inhibition on day 3 (µM)>
3.3

$$$$

Recorded result, CCCCCCCCCc1ccc(OCCOCCOCCOCCOCCOCCOCCOCCOCCO)cc1 , IC50 motility inhibition on day 3: 3.24

Lab note: measured IC50 motility inhibition on day 3 of Clc1ccccc1C(c1ccccc1)(c1ccccc1)n1ccnc1 was 5.5

Reported IC50 motility inhibition on day 3 for Oc1c(I)cc(I)c2cccnc12 was 1.9
